- Subject of test: Rad51 (Saccharomyces cerevisiae, UniProt P25454, K191R)
- Test method notes: biochemical
Observation type: pKd
Just so you know, pKd here is -log10 of the concentration in molar units; reply with that number alone.

State the recorded pKd for this entry: Nc1ncnc2c1ncn2[C@@H]1O[C@H](COP(=O)(O)OP(=O)(O)OP(=O)(O)O)[C@@H](O)[C@H]1O [ATP] 4.28

* * *

- Subject of test: Rad51 (Saccharomyces cerevisiae, UniProt P25454, K191A)
- Sequence (P25454 1-400 K191A): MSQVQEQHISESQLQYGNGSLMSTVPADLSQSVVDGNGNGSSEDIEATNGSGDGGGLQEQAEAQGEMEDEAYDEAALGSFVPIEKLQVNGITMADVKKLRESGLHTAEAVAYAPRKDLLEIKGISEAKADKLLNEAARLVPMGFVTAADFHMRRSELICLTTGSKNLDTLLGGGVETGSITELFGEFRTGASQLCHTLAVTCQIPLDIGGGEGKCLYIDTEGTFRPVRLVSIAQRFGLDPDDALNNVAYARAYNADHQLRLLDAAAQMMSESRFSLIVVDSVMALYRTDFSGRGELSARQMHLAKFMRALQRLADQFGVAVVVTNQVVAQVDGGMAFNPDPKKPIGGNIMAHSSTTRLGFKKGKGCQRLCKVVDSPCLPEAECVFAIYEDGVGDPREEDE
- Type: binding
Observation type: Kd (µM)
Unit µM implied. Number only.

State the recorded Kd for this entry: `[N-]=[N+]=Nc1nc2c(N)ncnc2n1[C@@H]1O[C@H](COP(=O)(O)OP(=O)(O)OP(=O)(O)O)[C@@H](O)[C@H]1O` 73.7

* * *

- Subject of test: Rad51 (Saccharomyces cerevisiae, UniProt P25454, K191R)
- Format: binding
Observation type: pKd
Just so you know, pKd here is -log10 of the concentration in molar units; reply with that number alone.

State the recorded pKd for this entry: `[N-]=[N+]=Nc1nc2c(N)ncnc2n1[C@@H]1O[C@H](COP(=O)(O)OP(=O)(O)OP(=O)(O)O)[C@@H](O)[C@H]1O` 4.57

* * *

- Subject of test: Rad51 (Saccharomyces cerevisiae, UniProt P25454, K191A)
- Test method notes: biochemical
Observation type: pKd
Just so you know, pKd here is -log10 of the concentration in molar units; reply with that number alone.

State the recorded pKd for this entry: `Nc1ncnc2c1ncn2[C@@H]1O[C@H](COP(=O)(O)OP(=O)(O)OP(=O)(O)O)[C@@H](O)[C@H]1O` 4.47
